- TEST_SYSTEM: AMP-activated protein kinase, AMPK (Homo sapiens) (UniProt P54646+O43741+P54619+Q9UGJ0+Q9Y478+Q13131+Q9UGI9)
- PROTOCOL: AMP-dependent Kinase enzyme assay. An in vitro enzyme assay that detects ADP turnover that is directly proportional to AMPK activity. This uses naive AMPK that is activated during the assay with MK-8722
- Format: functional
- Set-up: scale not given: direction of the effect not stated beside the values
- DETAILS: 30 µM
QUANTITY_MEASURED: Percent Effect (%)
Report the value in % with no unit label.

Reported Percent Effect, molecule `O=C(Cn1cnc(NC(=O)CC2CCCC2)n1)NCc1ccccc1` : ____ -2.47

Now the molecule Cc1cc(CN2CCOC(CN(C)C)C2)no1 (stereo not drawn) -1.25

Now the molecule `Cc1ncsc1CN1CC[C@H]2OCC[C@@]2(C(=O)NC(C)C)C1` 6.03

Now the molecule `COc1cc(N2C[C@@H]3COC[C@]3(COCc3cccc(C)n3)C2)ncn1` 3.71

Now the molecule `Cc1ccoc1C(=O)N1C[C@H]2CCC[C@@]2(COCc2ccncc2)C1` -2.61

Now the molecule `c1cnn(Cc2cn3c(n2)CN(Cc2nccs2)CC3)c1` -0.581

Now the molecule `CC(=O)N1CCN(c2cc(-c3ccccc3)nc3c(C)c(C)nn23)CC1` -6.13

Now the molecule `CNC(=O)[C@H]1C[C@H]2OCC[C@H]2N(Cc2cccc3ccccc23)C1` 2.57

Now the molecule `O=C(c1ccc(F)cc1)N1C[C@H]2CCC[C@@]2(COCc2ccccn2)C1` -4.94

Now the molecule `Cc1nn(C)c(N2CCOCC2)c1CNC1CCN(C(C)(C)C)CC1` -9.63

Now the molecule `COCc1ccccc1CNCc1c(C)nn(C)c1N(C)C` -41.2

Now the molecule CCC(C)(C)NC(=O)CN(C)C(c1cccc(F)c1)c1ccccn1 (stereo not drawn) 9.59

Now the molecule CCc1nc2n(n1)CC(NCc1ncc(-c3ccccc3)o1)CC2 (stereo not drawn) 0.215

Now the molecule `c1cnc(NCc2noc3c2CN(CCN2CCCC2)CC3)nc1` -2.08

Now the molecule CCC(C)N(C)CCNC(=O)NCc1cccc(-n2cncn2)c1 (stereo not drawn) -2.01

Now the molecule `CCCc1nc(CN2CCN(Cc3noc(CCC)n3)CC2)no1` -4.71

Now the molecule `COc1ccc(Cc2nnc(SC)o2)cc1OC` -3.66

Now the molecule `Cc1cnc(C(=O)N2CCCN(Cc3csc(C)n3)CC2)cn1` -7.71

Now the molecule CN(C(=O)Cn1nc(-c2cccs2)ccc1=O)C1CCS(=O)(=O)C1 (stereo not drawn) -37.7

Now the molecule `CN(c1ccc(C(C)(C)C)cc1)S(=O)(=O)c1cc(C(=O)O)cs1` -8.07

Now the molecule `CCc1cnc2c(c1Nc1ccc(OC)cc1)c(=O)n(C)c(=O)n2C` 0.437

Now the molecule COc1c(C2CCCN2Cc2cc(C)no2)c(C)nn1C (stereo not drawn) -4.61

Now the molecule `Cc1ccc(SCC(=O)NS(=O)(=O)c2ccc3c(c2)OCCO3)cc1` 2.56

Now the molecule `Cc1cc(C(=O)N2C[C@@H]3COC[C@]3(COCc3cccnc3)C2)no1` 4.4

Now the molecule `CN(C)C[C@H]1OC[C@@H]2CCN(C(=O)c3cccn3C)C[C@@H]21` -8

Now the molecule CC(C)N1CCC(Cc2cc(-c3cccc(C(=O)O)c3)ncn2)C1 (stereo not drawn) 7.52

Now the molecule `CCNC(=O)N(C)Cc1ccc(SC)c(OC)c1` -5.93

Now the molecule `CCS(=O)(=O)Nc1ccc(C(=O)NCCCN2CCCC2)cc1` 2.99

Now the molecule CNc1cncc(C2CCCN2Cc2ccccc2OCC(=O)O)n1 (stereo not drawn) 7.74

Now the molecule `O=C(C1=CCCC1)N1CCO[C@H]2[C@@H](Oc3ccccn3)CC[C@@H]21` 4.5

Now the molecule `CCN(CC(=O)NC)S(=O)(=O)N1CCCCCC1` -3.76

Now the molecule `CC(C)Sc1nnc(CCNC(=O)OC(C)(C)C)o1` -0.0572

Now the molecule `Cc1ncc(CNC(=O)Nc2cc(C(F)(F)F)c[nH]c2=O)s1` -10.2

Now the molecule CN(C)C(=O)CC1CC2(CCN(CC3CC3)CC2)c2cc(F)ccc21 (stereo not drawn) -8.18

Now the molecule `CS(=O)(=O)NC[C@H]1OC[C@@H]2CCN(Cc3ccc(F)cc3)C[C@@H]21` 2.13

Now the molecule `Cn1cc(CN2CCc3nc(-c4ccccn4)nc(O)c3C2)cn1` -8.66

Now the molecule CC(C)(C)NC(=O)C1CSCN1S(=O)(=O)c1cccc(F)c1 (stereo not drawn) -2.49

Now the molecule CCn1nnc2cc(C(=O)N3CCCC3Cn3cc(C)cn3)ccc21 (stereo not drawn) -2.65

----------
Task for the reader: assign each of the following molecules its reported Percent Effect.
- TEST_SYSTEM: Arginase-2, mitochondrial (Homo sapiens)
- PROTOCOL: in vitro enzyme assay to detect the production of urea directly proportional to the activity of Arginase II; note: in the data most compounds retested in dose-response had high values
- Type: functional
- Parameters: scale not given: direction of the effect not stated beside the values
- DETAILS: 33.3 µM
Report the value in % with no unit label.

Reported Percent Effect, molecule CC(C)(C)NC(=O)C1CSCN1S(=O)(=O)c1cccc(F)c1 (configuration not stated) : ____ 0.909

Now the molecule Cc1nc(CNCC2CCCN2c2cccnn2)no1 (configuration not stated) -6.53

Now the molecule `COc1ccc(OCc2nc(C(=O)N3CC[C@H](O)[C@@H](O)C3)co2)cc1` -0.476

Now the molecule `Cc1ccccc1-c1cc(NC(=O)CC(C)C)n(CCO)n1` 2.37

Now the molecule `Cc1cc(CN2CCN(C(=O)Nc3cccnc3)CC2)on1` 4.6

Now the molecule `Cn1ccnc1CN1CCN(CC(=O)NCC(F)(F)F)CC1` -4.01

Now the molecule `COCCO[C@@H]1CCN(C(=O)c2ccc(C)o2)[C@@H]1Cc1cccnc1` 4.17

----------
Task for the reader: assign each of the following compounds its reported Percent Effect.
- TEST_SYSTEM: Proteasome subunit beta (Trypanosoma cruzi)
- PROTOCOL: Trypanosoma cruzi proteasome chymotrypsin-like activity (TcProtChymo) assay. Note: in the data most compounds retested in dose-response had high values.
- Assay type: functional
- Parameters: scale not given: direction of the effect not stated beside the values
- DETAILS: 9.37 µM
Report the value in % with no unit label.

Reported Percent Effect, compound `N#Cc1cccnc1NCc1cccnc1N1CCC(C(N)=O)CC1` : ____ 12.3

Now the compound CC1COCCN1Cc1nc(-c2cccs2)no1 (stereo unspecified) 11.5

Now the compound OC(COc1ccccc1)CN1CCC(c2ccn[nH]2)CC1 (stereo unspecified) 2.05

Now the compound `O=C(c1ccncc1)N1CCC(O)(Cn2ccc3ccncc32)CC1` 17.9

Now the compound `COc1ccc(NC(=O)CNc2cccc3c2CCCC3)c(OC)c1` 6.95

Now the compound `CN(C)c1cc(CNC(=O)c2ccc(=O)[nH]n2)ccn1` 17.9

----------
- TEST_SYSTEM: AMP-activated protein kinase, AMPK (Homo sapiens) (UniProt P54646+O43741+P54619+Q9UGJ0+Q9Y478+Q13131+Q9UGI9)
- PROTOCOL: AMP-dependent Kinase enzyme assay. An in vitro enzyme assay that detects ADP turnover that is directly proportional to AMPK activity. This uses naive AMPK that is activated during the assay with MK-8722
- Type: functional
- Parameters: scale not given: direction of the effect not stated beside the values
- DETAILS: 30 µM
Task for the reader: assign each of the following compounds its reported Percent Effect.
Report the value in % with no unit label.

Reported Percent Effect, compound CN(Cc1nnc(C2CC2)n1C)C1CCN(Cc2ccccc2F)C1 (configuration not stated) : ____ -2.94

Now the compound `O=C(c1ccnnc1)N1C[C@@H](OCC2CCCC2)[C@H]2OCCC[C@H]21` 0.254

Now the compound `CC(C)Cc1noc(CN2CCN(CCOc3ccc(Cl)cc3)CC2)n1` -0.366

Now the compound `O=C(Cc1c[nH]c2ccccc12)N1CCN(C(=O)c2ccoc2)CC1` 1.95

Now the compound c1coc(CN2Cc3nccn3CC(Cn3cncn3)C2)c1 (configuration not stated) -1.24

Now the compound CC(Cn1cccn1)NC(=O)Nc1ccc(F)cc1 (configuration not stated) -0.867

Now the compound `CC(=O)N1CCC2(CC1)CC[C@@]1(C(=O)N(C)C)CN(S(C)(=O)=O)C[C@@H]21` -1.01

Now the compound `CO[C@@H]1CC[C@H]2[C@H]1OCCN2C(=O)C1=CCCC1` -1.31

Now the compound `CCC(=O)Nc1nnc(CCOc2cccc(OC)c2)s1` 42.3

Now the compound `CC(C)(C)NC(=O)CN1CCN(C(=O)Nc2ccc(F)cc2F)CC1` 8.1

Now the compound `COc1ccc(C(=O)N2CCC(Nc3ccc(C)nn3)CC2)c(F)c1` 3.77

Now the compound Cn1ccnc1CN1CCN(CC(O)c2ccco2)CC1 (configuration not stated) -3.75

Now the compound `COc1ncccc1C(=O)N1CCN(C(=O)Cc2ccccn2)CC1` -6.89

Now the compound CCN1CC(C(=O)NC(C)(C)CNC(=O)OC(C)(C)C)CC1=O (configuration not stated) -1.21

Now the compound `CCN(CC)CCNC(=O)c1cnc(C(C)(C)C)s1` 2.58

Now the compound `CS(=O)(=O)N1CCCN(C(=O)c2ccc(Cn3ccccc3=O)o2)CC1` -1.54

Now the compound CCN1CC(C(=O)NCc2ccccc2-n2cccn2)CC1=O (configuration not stated) 0.208
